# Experimental target: UniProt O15530
# Sequence (O15530 1-556): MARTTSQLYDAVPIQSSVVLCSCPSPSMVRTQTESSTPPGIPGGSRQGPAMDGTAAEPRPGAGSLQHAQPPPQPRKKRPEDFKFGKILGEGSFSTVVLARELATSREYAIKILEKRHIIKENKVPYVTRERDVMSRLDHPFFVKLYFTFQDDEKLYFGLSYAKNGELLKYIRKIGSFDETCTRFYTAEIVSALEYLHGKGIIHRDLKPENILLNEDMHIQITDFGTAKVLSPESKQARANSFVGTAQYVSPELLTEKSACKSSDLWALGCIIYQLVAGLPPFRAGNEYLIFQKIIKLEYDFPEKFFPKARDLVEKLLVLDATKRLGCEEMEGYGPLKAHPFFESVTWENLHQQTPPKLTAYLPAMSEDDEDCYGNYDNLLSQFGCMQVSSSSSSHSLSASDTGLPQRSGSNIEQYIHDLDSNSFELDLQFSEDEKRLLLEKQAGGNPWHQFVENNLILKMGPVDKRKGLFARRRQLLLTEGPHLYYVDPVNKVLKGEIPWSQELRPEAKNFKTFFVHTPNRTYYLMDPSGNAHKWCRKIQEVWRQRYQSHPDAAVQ
# Assay explanation: Kinase profiling PDK1
# Type: biochemical
# Run parameters: 100 micromolar inhibitor concentration; 100 is no change
# residual kinase activity, PDK1 annotations
The answer should be written as a number, with no unit following it.

Look over these answered cases.
O=C(Nc1nc2ccc(O)cc2s1)c1ccccc1 :: 98
COC(=O)c1cccc(C(=O)Nc2nc3cc(OC)ccc3s2)c1 :: 101
CC(=O)Nc1ccc(C(=O)Nc2nc3cc(O)ccc3s2)cc1 :: 69
CC(=O)Nc1nc2cc(C)ccc2s1 :: 93
O=C(Nc1nc2ccc(O)cc2s1)c1cccnc1 :: 77

// residual kinase activity, PDK1 lookup, compound = CC(=O)NC(C)C(=O)Nc1nc2ccc(C(F)(F)F)cc2s1 (stereo not shown) , result: 86

// residual kinase activity, PDK1 lookup, compound = `COc1ccc2sc(NC(=O)c3cccc(NC(C)=O)c3)nc2c1` , result: 80

// residual kinase activity, PDK1 lookup, compound = `COc1ccc2nc(NC(=O)c3ccccc3)sc2c1` , result: 101

// residual kinase activity, PDK1 lookup, compound = `N#Cc1ccc2nc(NC(=O)c3ccccc3)sc2c1` , result: 106

// residual kinase activity, PDK1 lookup, compound = `O=C(Nc1nc2ccc(O)cc2s1)c1ccncc1` , result: 83
